assayedTarget: T1, human IL-15Rα (human, UniProt Q13261 31-205, limits assumed)
T1 construct: also called hIL-15Rα; IL-15 receptor alpha
T1 sequence (Q13261 31-205 limits assumed): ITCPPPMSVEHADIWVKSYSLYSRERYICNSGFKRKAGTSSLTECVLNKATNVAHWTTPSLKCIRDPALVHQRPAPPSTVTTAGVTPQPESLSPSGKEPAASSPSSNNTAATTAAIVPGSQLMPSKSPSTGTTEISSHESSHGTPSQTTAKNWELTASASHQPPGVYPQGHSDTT
methodDescription: SPR, steady state
Listed below: Kd values for each entry.
Form entry: value (µM) — number only.

Examples with their reported Kd follow.
# binder, Kd [µM]
rows = [
    ("hIL-15 V49R/L69I (ligand) NWVNVISDLKKIEDLIQSMHIDATLYTESDVHPSCKVTAMKCFLLELQRISLESGDASIHDTVENLIIIANNSLSSNGNVTESGCKECEELEEKNIKEFLQSFVHIVQMFINTGGGGSGHHHHHHHHGGGLNDIFEAQKIEWHE", 0.0931),
    ("hIL-15 V49R/D30V (ligand) NWVNVISDLKKIEDLIQSMHIDATLYTESVVHPSCKVTAMKCFLLELQRISLESGDASIHDTVENLIILANNSLSSNGNVTESGCKECEELEEKNIKEFLQSFVHIVQMFINTGGGGSGHHHHHHHHGGGLNDIFEAQKIEWHE", 0.153),
    ("hIL-15 V49R/H32D (ligand) NWVNVISDLKKIEDLIQSMHIDATLYTESDVDPSCKVTAMKCFLLELQRISLESGDASIHDTVENLIILANNSLSSNGNVTESGCKECEELEEKNIKEFLQSFVHIVQMFINTGGGGSGHHHHHHHHGGGLNDIFEAQKIEWHE", 0.0855),
]

Moving on to another binder below.
hIL-15 V49R/N4S (ligand) NWVSVISDLKKIEDLIQSMHIDATLYTESDVHPSCKVTAMKCFLLELQRISLESGDASIHDTVENLIILANNSLSSNGNVTESGCKECEELEEKNIKEFLQSFVHIVQMFINTGGGGSGHHHHHHHHGGGLNDIFEAQKIEWHE yielded Kd of 0.0947
